Tested on: HS 578T breast
EXPERIMENT_SUMMARY: NCI tumour cell line growth inhibition, 48 h; in the data active = GI50 below about 0.43 µM; inactive = the rest
Would you mind answering with one of these outcomes? active, inactive

Input line: Any idea what this test logged for COc1ccc(-c2ccc(-c3ccc(-c4ccc(C(=N)N)cc4)s3)s2)cc1OC ?
Output line: inactive

Input line: Could you kindly confirm the outcome this assay logged for CO[C@@H]1CC(=O)C2(CC(=O)O[C@@H]2/C=C(\C)CCC=C(C)C)C[C@@H]1O (stereo partly drawn) ?
Output line: inactive

Input line: What did the test return for Cc1cc(C)c(O)c(CN(C)Cc2cc(Cl)cc(Cl)c2O)c1 ?
Output line: inactive

Input line: Tell me the recorded outcome of this test for c1ccc(-n2nnnc2-c2cccc3ccccc23)cc1 .
Output line: inactive

Input line: What outcome does the record of this test show for O=C(CCl)N1c2ccccc2Sc2ccc3ccccc3c21 ?
Output line: inactive

Input line: For C/C=C/CC(C)C(O)C1C(=O)NC(CC)C(=O)N(C)CC(=O)N(C)C(CC(C)C)C(=O)NC(C(C)C)C(=O)N(C)C(CC(C)C)C(=O)NC(C)C(=O)NC(C)C(=O)N(C)C(CC(C)C)C(=O)N(C)C(CC(C)C)C(=O)N(C)C(C(C)C)C(=O)N1C (stereo not drawn) , which call appears in the assay record?
Output line: inactive

Input line: How did this test come out for Cn1cc(-c2cnc3ccc4ccc(CS(=O)(=O)NCc5ccccn5)cc4c(=O)c3c2)cn1 ?
Output line: inactive

Input line: Hello, I am checking results. What call was entered for CN(C)C(=O)c1cc2cnc(Nc3ccc(-c4csc5c(=O)cc(N6CCOCC6)oc45)cc3)nc2n1C1CCCC1 ?
Output line: active

Source of measurements: PubChem BioAssay (NCI)
